Data origin: PubChem BioAssay AID1159580

assay: chemical genetic growth profiling, strain panel (AID 1159580);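 also: tested at 20 µM; growth read once vehicle control cultures reached saturation at 30 °C; 1 = growth at the plate median or of vehicle wells; lower values mean less growth of the strain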; conditions: S. cerevisiae deletion strains, growth OD, locus YOR136W, strain idh2
The campaign covered roughly 5,500 compounds. About 2,000 (36%) were called active. Not shown: some 18% with an inconclusive outcome. Rule as the data show it: active = normalized growth mostly below about 0.91 (no sharp cut-off); inconclusive = no clear call, values can overlap the other calls; inactive = mostly above about 0.92. The list shows a part of the results.
The reply should be one of these categories: label 1 (active), label 0 (inactive)

> print(dat)
                       compound  category
1  NC(=O)N1c2ccccc2C=Cc2ccccc21   label 0

# input Please share the test call associated with NC1CC1c1ccccc1 (configuration not stated) .
# output label 0

# input Please share the test call associated with `Cc1cc(=O)n(-c2ccccc2)n1C` .
# output label 0

# input Please share the test call associated with CC(NCCC(c1ccccc1)c1ccccc1)c1ccccc1 (configuration not stated) .
# output label 1

# input Please share the test call associated with `CC(=O)[O][Hg][c]1ccccc1` .
# output label 1

# input Please share the test call associated with `CC[C@@H](CO)NC(=O)[C@@H]1C=C2c3cccc4[nH]cc(c34)C[C@H]2N(C)C1` .
# output label 0

# input Please share the test call associated with `O=C1c2ccccc2C(=O)C1c1ccccc1` .
# output label 0
